- TARGET_ENTITY: Cytochrome P450 1A2 (Homo sapiens);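 further: PubChem cytochrome P450 panel assay, CYP1A2 panel member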
- Sequence (P05177 whole entry): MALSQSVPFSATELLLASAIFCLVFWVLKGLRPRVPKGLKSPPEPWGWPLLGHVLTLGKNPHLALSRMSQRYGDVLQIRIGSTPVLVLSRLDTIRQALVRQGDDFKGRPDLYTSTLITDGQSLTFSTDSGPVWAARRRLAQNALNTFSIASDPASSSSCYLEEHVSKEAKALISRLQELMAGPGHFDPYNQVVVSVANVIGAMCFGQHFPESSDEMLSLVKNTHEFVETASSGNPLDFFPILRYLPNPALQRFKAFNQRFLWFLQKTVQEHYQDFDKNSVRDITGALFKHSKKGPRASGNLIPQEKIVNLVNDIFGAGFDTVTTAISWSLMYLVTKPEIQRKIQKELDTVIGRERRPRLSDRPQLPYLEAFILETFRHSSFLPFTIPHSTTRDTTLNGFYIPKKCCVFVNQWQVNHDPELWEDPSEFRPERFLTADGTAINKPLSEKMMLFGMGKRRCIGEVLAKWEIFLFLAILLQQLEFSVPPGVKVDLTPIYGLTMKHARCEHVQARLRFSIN
Record form. Attribute: AC50. Fill in for each entry.

CCOC(=O)C1=C(C)NC(C)=C(C(=O)OC)[C@@H]1c1cccc([N+](=O)[O-])c1 [(S)-NITRENDIPINE] = 15.8 µM (inconclusive)
O=C(Nc1ncc2c(n1)-c1ccccc1CC2)c1cccc(Cl)c1 = 2.82 µM (inconclusive)
N#Cc1cccc(NC(=O)N2CC[C@@]3(CCCN(S(=O)(=O)c4ccccc4)C3)C2)c1 = 25.1 µM (inconclusive)
CC(C)CN1CC[C@@]2(CCCN(C(=O)c3cc(C(F)(F)F)cc(C(F)(F)F)c3)C2)C1 = 25.1 µM (inconclusive)

Please state, for each entry, its recorded AC50.
1. CCOc1ccc(NC(=S)NC(=O)/C=C/c2ccc(C)cc2)c([N+](=O)[O-])c1
2. COc1ccc(C(=O)N2CCC[C@@]3(CCN(CC(C)C)C3)C2)cc1
3. O=C(/C=C\c1ccc(Cl)cc1)N[C@@]12CCC(=O)[C@@H]3Oc4c(O)ccc5c4[C@@]31CCN(CC1CC1)[C@@H]2C5

[A]
15.8 µM (inconclusive)
31.6 µM (inconclusive)
39.8 µM (inconclusive)

---

Record form. Attribute: IC50. Fill in for each entry.
- TARGET_ENTITY: SUMO-activating enzyme (Homo sapiens, UniProt Q9UBT2)
- Sequence (Q9UBE0 whole entry): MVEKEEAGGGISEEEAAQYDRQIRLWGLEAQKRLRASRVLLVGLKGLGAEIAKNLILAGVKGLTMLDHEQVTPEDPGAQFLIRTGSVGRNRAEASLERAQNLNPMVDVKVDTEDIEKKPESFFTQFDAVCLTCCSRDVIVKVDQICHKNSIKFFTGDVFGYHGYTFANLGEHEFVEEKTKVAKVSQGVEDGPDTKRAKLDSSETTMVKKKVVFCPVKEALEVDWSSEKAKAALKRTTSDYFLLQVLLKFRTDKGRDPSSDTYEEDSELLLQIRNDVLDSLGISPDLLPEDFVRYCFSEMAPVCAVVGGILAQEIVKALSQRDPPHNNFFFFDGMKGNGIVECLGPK
- Sequence (Q9UBT2 whole entry): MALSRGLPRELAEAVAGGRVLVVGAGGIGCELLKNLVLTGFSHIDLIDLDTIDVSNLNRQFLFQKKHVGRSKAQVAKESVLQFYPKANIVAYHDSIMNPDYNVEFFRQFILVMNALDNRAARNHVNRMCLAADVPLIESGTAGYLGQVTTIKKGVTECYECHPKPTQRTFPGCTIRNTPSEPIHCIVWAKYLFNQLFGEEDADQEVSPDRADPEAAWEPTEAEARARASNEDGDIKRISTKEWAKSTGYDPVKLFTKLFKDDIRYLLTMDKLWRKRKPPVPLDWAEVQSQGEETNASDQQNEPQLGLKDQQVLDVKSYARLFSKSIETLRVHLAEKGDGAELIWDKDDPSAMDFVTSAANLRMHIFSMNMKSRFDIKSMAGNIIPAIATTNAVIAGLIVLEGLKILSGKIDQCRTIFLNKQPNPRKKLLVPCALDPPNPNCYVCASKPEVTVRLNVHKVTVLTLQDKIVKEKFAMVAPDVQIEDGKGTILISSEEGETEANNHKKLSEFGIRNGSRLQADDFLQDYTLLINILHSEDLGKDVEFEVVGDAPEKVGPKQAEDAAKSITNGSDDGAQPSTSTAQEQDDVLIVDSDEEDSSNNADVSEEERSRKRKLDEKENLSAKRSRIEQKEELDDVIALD
- PROTOCOL: inhibitors of in vitro SUMOylation cascade, primary screen, biochemical, HTRF, uHTS (AID 2006)
- Type: protein-complex assay
Activity calls are given as the source filed them.

Please state, for each entry, its recorded IC50.
1. Cn1c2ccccc2c(=O)n2c(=O)c3ccccc3cc12
2. O=C(/C=C/c1cccs1)Nc1scc(-c2ccccc2)c1C(=O)O
3. COc1ccc(-c2nc3c(c(SCC(=O)Nc4cccc(O)c4)n2)Cc2c(CO)cnc(C)c2O3)cc1
4. C/C(=N\NC(=O)c1cc(O)cc(O)c1)c1ccc(NC(=O)Cc2ccccc2)cc1

[A]
1: 10.9 µM (active); 2: 9.84 µM (active); 3: 32.8 µM (active); 4: 9.77 µM (active)

---

- TARGET_ENTITY: Heat shock factor protein 1 (Mus musculus, UniProt P38532)
- Sequence (P38532 whole entry): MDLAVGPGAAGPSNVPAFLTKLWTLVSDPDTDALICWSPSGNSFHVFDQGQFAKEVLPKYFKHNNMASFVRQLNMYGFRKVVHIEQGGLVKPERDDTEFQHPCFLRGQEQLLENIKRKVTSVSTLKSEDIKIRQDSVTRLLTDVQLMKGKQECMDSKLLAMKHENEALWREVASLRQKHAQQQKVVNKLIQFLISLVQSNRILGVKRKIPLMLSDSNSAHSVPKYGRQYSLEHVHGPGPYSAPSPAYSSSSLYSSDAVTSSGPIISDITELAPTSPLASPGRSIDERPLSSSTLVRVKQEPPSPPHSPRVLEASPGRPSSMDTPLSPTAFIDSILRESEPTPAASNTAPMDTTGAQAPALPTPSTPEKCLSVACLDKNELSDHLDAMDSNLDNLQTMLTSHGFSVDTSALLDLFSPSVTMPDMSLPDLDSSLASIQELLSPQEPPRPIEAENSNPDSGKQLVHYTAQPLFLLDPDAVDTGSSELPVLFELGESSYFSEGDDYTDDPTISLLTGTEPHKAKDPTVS
- PROTOCOL: inhibition of MG132-induced HSE-luciferase signal, confirmation, cell-based, NIH3T3, luminescence, dose retest (AID 2382);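 further: NIH3T3 fibroblasts with HSF1-driven luciferase reporter stressed by proteasome inhibitor MG132; luminescence from HSF1-driven luciferase expression after 8 hours of MG132 stress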
- Type: functional
Record form. Attribute: EC50. Fill in for each entry.

Please state, for each entry, its recorded EC50.
1. COc1ccccc1NC(=O)c1ccc([N+](=O)[O-])o1
2. CCn1c(=O)c(C(=O)Nc2ccccc2F)c(O)c2ccccc21
3. CCCCN=C(S)NNc1c(Cl)cc(Cl)cc1Cl
4. CC(C)(C)NC(=O)c1cccc(NC(=O)Cc2cccs2)c1
5. CN(Cc1ccccc1)C(=O)CCn1c(=O)oc2ccccc21
6. Cn1c(N2CCOCC2)nc(-c2ccccc2)c1-c1ccccc1
7. Nc1nc(Cl)nc(N(c2ccccc2)c2ccccc2)n1
8. O=C(COC(=O)[C@H](Cc1ccccc1)N1C(=O)c2ccccc2C1=O)Nc1ccc2c(c1)OCO2

[A]
["> 195 µM (not active)", "> 195 µM (not active)", "> 195 µM (not active)", "> 195 µM (not active)", "> 195 µM (not active)", "> 195 µM (not active)", "> 195 µM (not active)", "> 195 µM (not active)"]

Hey, just so you know, these numbers are from ChEMBL document CHEMBL1201862.
